target: T1, neuropilin-1 (NRP1) on HEK293 cells overexpressing NRP1 (UniProt O14786 22-923, limits assumed); assay: flow cytometry, HEK293-NRP1 vs HEK293
T1 construct: whole, on cells
Attribute Measured: 100 nM FACS (MFI Ratio)

{"columns": ["Binder", "Attribute Measured", "Result"],
 "data": [
  ["NRP1-79 (VHH) VHH: EVQLVESGGGLVQPGGSLRLSCAASGRTYYAMGWFRQAPGKEREFVAAISWGGGLTVYADSVKGRFTISADNSKNTAYLQMNSLKPEDTAVYYCASSGWLTDYYYAMDVWGQGTLVTVSS", "100 nM FACS (MFI Ratio)", 13.2],
  ["NRP1-40 (VHH) VHH: EVQLVESGGGLVQPGGSLRLSCAASGSITSFNAMGWFRQAPGKERELVASINWSGARTLYADSVKGRFTISADNSKNTAYLQMNSLKPEDTAVYYCASARYYGSGRHFDYWGQGTLVTVSS", "100 nM FACS (MFI Ratio)", 16.7]
]}
